- Experimental system: HLA-A*0201 (Homo sapiens, UniProt P04439, D140Y/D185E/D98H/E176V/E277Q/G131W/G231S/I119V/I121R/I166T/I218V/L300P/L318F/N151K/N90K/P208A/P217A/Q86G/Q94H/R138H/R169H/T345S)
- Construct: expressed in transfected cells; host or cells: T2 cells (ATCC CRL-1992), TAP-deficient
- Measurement notes: peptide/HLA-A*0201 complex stability assay on T2 cells
- Type: binding
- Condition: 100 µM peptide + 100 ng/ml hβ2m overnight 37 °C, brefeldin A 10 µg/ml 1 h, then 30 min to 12 h at 37 °C, BB7.2 staining, from linear trend line
I'd appreciate it if you could supply DC50: half-life of the HLA-A2–peptide complexes values for the items below.
Give your result in h as a bare value.

The sequence listed as LLAALVQDYL [ppCT50–59] shows DC50: half-life of the HLA-A2–peptide complexes equal to 10

The sequence listed as FLALSILVL [ppCT9–17] shows DC50: half-life of the HLA-A2–peptide complexes equal to 5

The sequence listed as CMLGTYTQDF [ppCT91–100] shows DC50: half-life of the HLA-A2–peptide complexes equal to 4

The sequence listed as VLLQAGSLHA [ppCT16–25] shows DC50: half-life of the HLA-A2–peptide complexes equal to 3
